assay: Cmax in beagle dog at 5 mg/kg, po administered via gavage as microsuspension pre-treated with 6 ug/kg, im pentagastrin 15 to 30 mins before compound dosing; type: ADME, organism-based, Canis lupus familiaris; conditions: in vivo
reported.property: Cmax (µM)
The reply should contain only the number, in µM.

Suppose we examine the compound C=C(C)[C@@H]1CC[C@]2(NCCN3CCS(=O)(=O)CC3)CC[C@]3(C)[C@H](CC[C@@H]4[C@@]5(C)CC=C(c6ccc(C(=O)O)cc6)C(C)(C)[C@@H]5CC[C@]43C)[C@@H]12 [BMS-955176] ; what Cmax value has been reported? 4.43

###

assay: in vitro; conditions: human, MT2 cells
Description: Cytotoxicity against human MT2 cells assessed as reduction in cell viability
reported.property: CC50 (µM)
Just the number please, in µM, no unit attached.

1) C=C(C)[C@@H]1CC[C@]2(NCCO)CC[C@]3(C)[C@H](CC[C@@H]4[C@@]5(C)CC=C(c6ccc(C(=O)O)cc6)C(C)(C)[C@@H]5CC[C@]43C)[C@@H]12    8.48

Look at this compound and give its reported CC50. C=C(C)[C@@H]1CC[C@]2(NCCN3CCN(S(=O)(=O)CC)CC3)CC[C@]3(C)[C@H](CC[C@@H]4[C@@]5(C)CC=C(c6ccc(C(=O)O)cc6)C(C)(C)[C@@H]5CC[C@]43C)[C@@H]12 13.4

Return reported CC50; argument: C=C(C)[C@@H]1CC[C@]2(NCCN3CCS(=N)(=O)CC3)CC[C@]3(C)[C@H](CC[C@@H]4[C@@]5(C)CC=C(c6ccc(C(=O)O)cc6)C(C)(C)[C@@H]5CC[C@]43C)[C@@H]12 14

Given the entry C=C(C)[C@@H]1CC[C@]2(NCCN3CCS(=O)(=O)CC3)CC[C@]3(C)[C@H](CC[C@@H]4[C@@]5(C)CC=C(c6ccc(C(=O)O)cc6)C(C)(C)[C@@H]5CC[C@]43C)[C@@H]12 [BMS-955176] , report its measured CC50. 9.2

Can you look up the measured CC50 of C=C(C)[C@@H]1CC[C@]2(NCCN3CCCS(=O)(=O)CC3)CC[C@]3(C)[C@H](CC[C@@H]4[C@@]5(C)CC=C(c6ccc(C(=O)O)cc6)C(C)(C)[C@@H]5CC[C@]43C)[C@@H]12 for me? 4.9

Quick one: CC50 for C=C(C)[C@@H]1CC[C@]2(NC(=O)OCCN3CCS(=O)(=O)CC3)CC[C@]3(C)[C@H](CC[C@@H]4[C@@]5(C)CC=C(c6ccc(C(=O)O)cc6)C(C)(C)[C@@H]5CC[C@]43C)[C@@H]12 ? 9.9

Record request: CC50 value, item C=C(C)[C@@H]1CC[C@]2(NCCNC3CCS(=O)(=O)C3)CC[C@]3(C)[C@H](CC[C@@H]4[C@@]5(C)CC=C(c6ccc(C(=O)O)cc6)C(C)(C)[C@@H]5CC[C@]43C)[C@@H]12 (some centres undefined) 11.1

Provenance of the data: ChEMBL document CHEMBL4152347
